Sourced from patent EP0717746B1

target: human β3-adrenoceptor (Homo sapiens); construct: plasma membranes prepared; assay: β3-Adrenoceptor-mediated adenylyl cyclase activity in CHO cell plasma membranes; conditions: concentration of agonist producing 50 % activation of adenylyl cyclase; CHO cell plasma membranes transfected with the human β3-adrenoceptor; cAMP produced over 20 minutes
Sequence (P13945 whole entry): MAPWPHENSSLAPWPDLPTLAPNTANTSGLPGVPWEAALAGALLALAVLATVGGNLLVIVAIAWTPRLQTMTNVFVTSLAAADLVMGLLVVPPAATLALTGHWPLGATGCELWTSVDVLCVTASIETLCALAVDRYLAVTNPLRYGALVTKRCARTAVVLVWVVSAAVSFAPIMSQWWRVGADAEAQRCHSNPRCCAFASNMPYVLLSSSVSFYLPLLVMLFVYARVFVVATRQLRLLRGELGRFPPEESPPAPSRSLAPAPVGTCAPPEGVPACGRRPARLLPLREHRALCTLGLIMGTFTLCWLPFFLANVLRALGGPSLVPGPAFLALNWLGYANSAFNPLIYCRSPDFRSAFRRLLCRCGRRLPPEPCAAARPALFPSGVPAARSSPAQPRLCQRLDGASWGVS
// reported EC50 for each item listed

CCOP(=O)(CC)COc1ccc(CC(C)NC[C@H](O)c2ccc(O)c(O)c2)cc1 (some centres unmarked): 460 nM

Proceeding to the next molecule to report its EC50.
Q. Given the molecule CC(Cc1ccc(OCP(=O)(O)c2ccccc2)cc1)NC[C@H](O)c1ccc(O)c(O)c1 (some centres unmarked) , what is its reported EC50?
A. 540 nM
